Target: Hepatitis C Virus NS3/4A protease D168A (Hepatitis C virus genotype 1b, UniProt O92972, D1194A)
Sequence (O92972 1027-1657 D1194A): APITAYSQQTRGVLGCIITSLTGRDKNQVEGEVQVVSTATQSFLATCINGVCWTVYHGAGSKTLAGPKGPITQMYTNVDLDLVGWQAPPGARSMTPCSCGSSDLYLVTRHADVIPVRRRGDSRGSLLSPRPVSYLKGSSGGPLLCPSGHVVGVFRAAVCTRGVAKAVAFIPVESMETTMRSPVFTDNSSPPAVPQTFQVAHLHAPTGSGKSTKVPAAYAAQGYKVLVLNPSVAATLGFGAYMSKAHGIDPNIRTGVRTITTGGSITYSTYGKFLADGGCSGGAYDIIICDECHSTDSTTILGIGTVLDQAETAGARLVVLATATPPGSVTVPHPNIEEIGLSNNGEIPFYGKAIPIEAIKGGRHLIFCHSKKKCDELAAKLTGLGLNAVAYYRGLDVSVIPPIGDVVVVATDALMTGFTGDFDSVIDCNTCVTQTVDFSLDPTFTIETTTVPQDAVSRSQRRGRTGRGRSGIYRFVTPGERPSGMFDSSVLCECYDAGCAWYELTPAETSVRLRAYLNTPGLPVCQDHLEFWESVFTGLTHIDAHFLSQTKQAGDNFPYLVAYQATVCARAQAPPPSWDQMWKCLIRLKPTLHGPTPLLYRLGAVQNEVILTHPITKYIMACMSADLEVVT
Sequence (O92972 1658-1711 partner limits assumed): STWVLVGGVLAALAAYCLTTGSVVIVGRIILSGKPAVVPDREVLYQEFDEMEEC
Assay: biochemical
readout_kind: EC50
State the value with its unit after it.

Query :: Returns the measured EC50 for the input compound. Input: "C=C[C@@H]1C[C@]1(NC(=O)[C@@H]1C[C@@H](OC(=O)N2Cc3cccc(F)c3C2)CN1C(=O)[C@@H](NC(=O)OC(C)(C)C)C(C)(C)C)C(=O)NS(=O)(=O)C1CC1"
Result :: 570 nM

----------
Molecular target: Plasmin (Homo sapiens)
Sequence (P00747 581-810 limits assumed): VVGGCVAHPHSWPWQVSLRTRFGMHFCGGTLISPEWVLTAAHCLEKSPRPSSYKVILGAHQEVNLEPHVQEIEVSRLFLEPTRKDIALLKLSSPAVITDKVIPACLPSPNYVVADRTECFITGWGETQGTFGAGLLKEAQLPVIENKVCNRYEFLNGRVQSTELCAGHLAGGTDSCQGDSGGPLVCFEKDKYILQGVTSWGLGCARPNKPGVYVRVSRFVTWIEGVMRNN
Sequence (P00747 97-580 partner limits assumed): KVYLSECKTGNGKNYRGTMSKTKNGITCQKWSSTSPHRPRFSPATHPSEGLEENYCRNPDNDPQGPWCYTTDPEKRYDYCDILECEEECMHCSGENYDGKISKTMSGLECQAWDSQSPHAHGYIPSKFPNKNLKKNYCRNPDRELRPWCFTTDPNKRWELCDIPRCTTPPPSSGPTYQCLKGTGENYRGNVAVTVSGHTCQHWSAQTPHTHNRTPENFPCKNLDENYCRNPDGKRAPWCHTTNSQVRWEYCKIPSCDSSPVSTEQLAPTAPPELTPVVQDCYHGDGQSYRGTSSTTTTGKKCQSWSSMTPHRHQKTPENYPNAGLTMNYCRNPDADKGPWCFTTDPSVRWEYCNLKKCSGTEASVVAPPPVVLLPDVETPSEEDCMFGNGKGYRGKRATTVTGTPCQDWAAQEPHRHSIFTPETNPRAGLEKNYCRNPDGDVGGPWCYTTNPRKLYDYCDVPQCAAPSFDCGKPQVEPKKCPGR
readout_kind: IC50

Query :: Identify the measured IC50 of C=C[C@@H]1C[C@]1(NC(=O)[C@@H]1C[C@@H](OC(=O)N2Cc3cccc(F)c3C2)CN1C(=O)[C@@H](NC(=O)OC(C)(C)C)C(C)(C)C)C(=O)NS(=O)(=O)C1CC1 [Compound 10] for Plasmin (Homo sapiens).
Result :: > 100 µM
